Target: IgG1 Fc (counter target) (Homo sapiens, UniProt P01857-1 P01857-1:100-330)
Assay: SPR; no interaction observed
Settings: tags: AcroBiosystems; chain copies: 2; label: 5'-biotin-TEG
experimental.endpoint: binding result

GCGTAAGGGTTTGGCAGCGGGCCTGGCGGAACGCGTGTAT (ssDNA) [CELTIC_3s] : no binding
CGGCAGGGGTTTGGCTCCGGGTCTGGCGAACTGGCTGAGA (ssDNA) [CELTIC_5s] : no binding
GGTCGGGTGCTACTGAGCGATTGGCTTTCCGGACTGGGGA (ssDNA) [CELTIC_21s] : no binding
